Overview of recorded thermal stability higher compared to Z-TETRAOL (Comparative Example 11C) for various compounds
# ASSAY_EXPLANATION: Thermal stability, TG/DTA measurement
# SETTINGS: difference of weight reduction temperatures

{"COMPOUND": "CCCCCCCCCCCCCCCCCC[n+]1ccn(CCCO)c1.O=S(=O)([N-]S(=O)(=O)C(F)(F)C(F)(F)C(F)(F)C(F)(F)F)C(F)(F)C(F)(F)C(F)(F)C(F)(F)F", "RESULT": "≥ 90 °C"}
{"COMPOUND": "CCCCCCCCCCCCCCCCCCC1CCCCN2CCC[N+](CCCO)=C12.O=S(=O)([N-]S(=O)(=O)C(F)(F)C(F)(F)C(F)(F)C(F)(F)F)C(F)(F)C(F)(F)C(F)(F)C(F)(F)F (stereo not drawn)", "RESULT": "≥ 85 °C"}

Inquiry: Could you share which thermal stability higher compared to Z-TETRAOL (Comparative Example 11C) value was measured for CCCCCCCCCCCCCC[N+](C)(C)CCCO.O=S(=O)([N-]S(=O)(=O)C(F)(F)C(F)(F)C(F)(F)C(F)(F)F)C(F)(F)C(F)(F)C(F)(F)C(F)(F)F ?
Reply text: ≥ 90 °C

###

# ASSAY_EXPLANATION: Thermal stability, TG/DTA measurement
# SETTINGS: difference of weight reduction temperatures
Overview of recorded thermal stability higher compared to Z-TETRAOL (Comparative Example 11C) for various compounds

// known answers, use as guide
{"SMI": "CCCCCCCCCCCCCCCCCC[N+]1(CCCO)CCCC1.O=S(=O)([N-]S(=O)(=O)C(F)(F)C(F)(F)C(F)(F)C(F)(F)F)C(F)(F)C(F)(F)C(F)(F)C(F)(F)F", "RESULT": "≥ 100 °C"}
{"SMI": "CCCCCCCCCCCCCCCCCC[N+](C)(C)CCCO.O=S(=O)([N-]S(=O)(=O)C(F)(F)C(F)(F)C(F)(F)C(F)(F)F)C(F)(F)C(F)(F)C(F)(F)C(F)(F)F", "RESULT": "≥ 90 °C"}

Now take the following compound into account.
Inquiry: Could you share which thermal stability higher compared to Z-TETRAOL (Comparative Example 11C) value was measured for CCCCCCCCCCCCCCCCCC[n+]1ccn(CCCO)c1CCCCCCCCCCCCCCCCC.O=S(=O)([N-]S(=O)(=O)C(F)(F)C(F)(F)C(F)(F)C(F)(F)F)C(F)(F)C(F)(F)C(F)(F)C(F)(F)F ?
Reply text: ≥ 85 °C

###

Overview of recorded Weight reduction temperature 20% for various compounds
# ASSAY_EXPLANATION: Thermal stability, TG/DTA measurement
# SETTINGS: air 200 mL/min, 30° C. to 600° C., heating rate 10° C./min
Numeric only. Scale: °C

// known answers, use as guide
{"COMPOUND": "CCCCCCCCCCCCCC[N+](C)(C)CCCO.O=S(=O)([N-]S(=O)(=O)C(F)(F)C(F)(F)C(F)(F)C(F)(F)F)C(F)(F)C(F)(F)C(F)(F)C(F)(F)F", "Weight reduction temperature 20% / °C": 375.0}
{"COMPOUND": "CCCCCCCCCCCCCCCCCCn1ccnc1CCCCCCCCCCCCCCCCC.O=S1(=O)NS(=O)(=O)C(F)(F)C(F)(F)C1(F)F [Comparative Example 7A, reference compound]", "Weight reduction temperature 20% / °C": 405.0}
{"COMPOUND": "CCCCCCCCCCCCCCCCCCN.O=S(=O)(NS(=O)(=O)C(F)(F)C(F)(F)C(F)(F)C(F)(F)F)C(F)(F)C(F)(F)C(F)(F)C(F)(F)F [Comparative Example 8A, reference compound]", "Weight reduction temperature 20% / °C": 348.0}
{"COMPOUND": "CCCCCCCCCCCCCCCCCCC1CCCCN2CCCN=C12.O=S1(=O)NS(=O)(=O)C(F)(F)C(F)(F)C1(F)F (stereo not shown) [Comparative Example 4A, reference compound]", "Weight reduction temperature 20% / °C": 414.0}
{"COMPOUND": "CCCCCCCCCCCCCCCCCCC1CCCCN2CCC[N+](CCCO)=C12.O=S(=O)([N-]S(=O)(=O)C(F)(F)C(F)(F)C(F)(F)C(F)(F)F)C(F)(F)C(F)(F)C(F)(F)C(F)(F)F (stereo not shown)", "Weight reduction temperature 20% / °C": 387.7}
{"COMPOUND": "CCCCCCCCCCCCCCCCCC[n+]1ccn(CCCC)c1.O=S1(=O)[N-]S(=O)(=O)C(F)(F)C(F)(F)C1(F)F [Comparative Example 2A, reference compound]", "Weight reduction temperature 20% / °C": 387.8}

Inquiry: Could you share which Weight reduction temperature 20% value was measured for CCCCCCCCCCCCCCCCCC[N+]1(CCCO)CCCC1.O=S(=O)([N-]S(=O)(=O)C(F)(F)C(F)(F)C(F)(F)C(F)(F)F)C(F)(F)C(F)(F)C(F)(F)C(F)(F)F ?
Reply text: 387.6

Inquiry: Record: CCCCCCCCCCCCCCCCCC[N+](C)(C)CCCO.O=S(=O)([N-]S(=O)(=O)C(F)(F)C(F)(F)C(F)(F)C(F)(F)F)C(F)(F)C(F)(F)C(F)(F)C(F)(F)F [Example 10A]
Reply text: 376.6

Inquiry: Record: CCCCCCCCCCCCCCCCCC[n+]1ccn(CCCO)c1.O=S(=O)([N-]S(=O)(=O)C(F)(F)C(F)(F)C(F)(F)C(F)(F)F)C(F)(F)C(F)(F)C(F)(F)C(F)(F)F
Reply text: 389.3

Inquiry: Record: CCCCCCCCCCCCCCCCCC[n+]1ccn(CCCO)c1CCCCCCCCCCCCCCCCC.O=S(=O)([N-]S(=O)(=O)C(F)(F)C(F)(F)C(F)(F)C(F)(F)F)C(F)(F)C(F)(F)C(F)(F)C(F)(F)F
Reply text: 398.8
